- measured.on: CA I (Homo sapiens)
- Sequence (P00915 whole entry): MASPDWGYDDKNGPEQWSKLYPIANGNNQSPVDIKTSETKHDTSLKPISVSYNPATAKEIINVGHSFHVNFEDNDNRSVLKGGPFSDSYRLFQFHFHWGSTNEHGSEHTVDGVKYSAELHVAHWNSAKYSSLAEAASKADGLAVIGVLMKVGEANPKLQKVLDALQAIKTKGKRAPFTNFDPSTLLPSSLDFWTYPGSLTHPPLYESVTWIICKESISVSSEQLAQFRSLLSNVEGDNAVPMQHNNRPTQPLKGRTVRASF
- test.details: CA-catalysed CO2 hydration stopped-flow inhibition assay, CA I
- Assay type: biochemical
- test.settings: mean from 3 assays, cells/sentences stated in nM
A collection of compounds and their measured Ki

>>> assay_value("COc1ccc2oc(=O)c(C(=O)Nc3cccc(S(N)(=O)=O)c3)cc2c1 [16f]")
"774 nM"
>>> assay_value("CCOC(=O)c1cc2ccc(OCC(=O)Nc3ccc(S(N)(=O)=O)cc3)cc2oc1=O")
"738 nM"
>>> assay_value("NS(=O)(=O)c1ccc(NC(=O)c2cc3cc(Cl)cc(Cl)c3oc2=O)cc1")
"2320 nM"
>>> assay_value("NS(=O)(=O)c1cccc(NC(=O)c2cc3cc(F)ccc3oc2=O)c1 [16i]")
"225 nM"
>>> assay_value("NS(=O)(=O)c1cccc(NC(=O)c2cc3cc(Br)ccc3oc2=O)c1 [16c]")
"1960 nM"

Prompt line: What does the record list as Ki for NS(=O)(=O)c1ccc(NC(=O)c2cc3cc(Br)ccc3oc2=O)cc1 ?
Response line: 1420 nM

Prompt line: What does the record list as Ki for NS(=O)(=O)c1ccc(NC(=O)c2cc3cc(Cl)ccc3oc2=O)cc1 ?
Response line: 818 nM

Prompt line: What does the record list as Ki for CCN(CC)c1ccc2cc(C(=O)OCC(=O)Nc3ccc(S(N)(=O)=O)cc3)c(=O)oc2c1 ?
Response line: 74.4 nM

Prompt line: What does the record list as Ki for NS(=O)(=O)c1cccc(NC(=O)c2cc3ccccc3oc2=O)c1 [16e] ?
Response line: 193 nM
